- Target Of Assay: T1, ADI-76359
- T1 construct: anti-CD3 antibody made in CHO cells, captured by anti-human Fc
- T1 sequence (VH, as listed by the source, chain 1 of 2): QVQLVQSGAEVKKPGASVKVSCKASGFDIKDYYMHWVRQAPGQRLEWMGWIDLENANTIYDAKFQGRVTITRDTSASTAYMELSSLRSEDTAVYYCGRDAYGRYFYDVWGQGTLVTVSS
- T1 sequence (VL, as listed by the source, chain 2 of 2): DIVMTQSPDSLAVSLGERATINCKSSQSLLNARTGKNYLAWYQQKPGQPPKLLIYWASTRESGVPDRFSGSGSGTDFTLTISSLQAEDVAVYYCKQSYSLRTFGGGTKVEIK
- Method Notes: SPR Carterra avidity, yeast anti-ID, *koff limit
Measured Property: pKd
Just the number, please; pKd means minus log10 of the concentration in mol/L.

Could you tell me which pKd is on file for ADI-34138 (antibody, V domains shown, anti-ID IgG) VH: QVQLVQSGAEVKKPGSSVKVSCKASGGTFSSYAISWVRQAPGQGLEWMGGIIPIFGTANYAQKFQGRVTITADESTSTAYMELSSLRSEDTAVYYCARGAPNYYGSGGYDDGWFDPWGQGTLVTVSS VL: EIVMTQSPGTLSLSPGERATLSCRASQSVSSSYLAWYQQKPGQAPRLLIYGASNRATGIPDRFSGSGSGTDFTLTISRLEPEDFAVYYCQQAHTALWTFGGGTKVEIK ?
8.02

What would you report for ADI-34135 (antibody, V domains shown, anti-ID IgG) VH: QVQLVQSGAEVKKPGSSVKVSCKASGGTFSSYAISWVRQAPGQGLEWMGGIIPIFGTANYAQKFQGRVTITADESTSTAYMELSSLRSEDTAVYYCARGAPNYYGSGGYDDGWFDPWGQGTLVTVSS VL: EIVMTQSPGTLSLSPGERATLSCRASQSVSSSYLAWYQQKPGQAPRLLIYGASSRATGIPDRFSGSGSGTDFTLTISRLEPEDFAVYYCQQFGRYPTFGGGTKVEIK ?
10.28

Proceed to ADI-30242 (antibody, V domains shown, anti-ID IgG) VH: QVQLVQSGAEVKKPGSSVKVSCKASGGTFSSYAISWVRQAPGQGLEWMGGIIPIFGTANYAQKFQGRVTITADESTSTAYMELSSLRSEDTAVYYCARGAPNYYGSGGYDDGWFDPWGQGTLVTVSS VL: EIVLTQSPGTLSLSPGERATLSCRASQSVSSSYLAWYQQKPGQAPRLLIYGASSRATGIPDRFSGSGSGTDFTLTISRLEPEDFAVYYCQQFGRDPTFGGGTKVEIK
8.43
